System: SPN 49619
test summary: MIC, broth microdilution (CLSI), substance alone or ATB combined with compound at 4 or 8 μg/mL
Assay type: cell-based, S. pneumoniae
study conditions: MIC of RIF; compound @8 μg/ml; SPN 49619
parameter measured: MIC ATB combined with Example compound (ng/mL)

> print(dat)
                                   compound  value.unit  endpoint.value
1  O=C1N2CC(n3cccn3)=CC(C2)N1OS(=O)(=O)[O-].[Na+] (stereo not drawn) [Example 11]       ng/mL               2
2  NC[C@H]1C=C(c2cnco2)[C@@H]2CN1C(=O)N2OS(=O)(=O)[O-].O=C(O)C(F)(F)F.[Na+] (relative stereo) [Example 1]       ng/mL              63
3  O=C1N2CC(n3ccnn3)=CC(C2)N1OS(=O)(=O)[O-].[Na+] (stereo not drawn) [Example 12]       ng/mL            0.49
4  O=C1N2CC(c3ncco3)=CC(C2)N1OC(F)(F)C(=O)O (stereo not drawn) [Example 7]       ng/mL             7.8
5  O=C1N2CC(n3cccn3)=CC(C2)N1OC(F)(F)C(=O)[O-].[Li+] (stereo not drawn) [Example 13]       ng/mL             7.8

====

Test system: KPN BAA-1898
test summary: MIC, broth microdilution (CLSI), substance alone or ATB combined with compound at 4 or 8 μg/mL
Format: cell-based, K. pneumoniae
study conditions: ATB ATM; KPN BAA-1898; Example @8 μg/ml
parameter measured: MIC ATB combined with Example

> print(dat)
                                   molecule             parameter.measured  endpoint.value
1  O=C1N2CC(n3cncn3)=CC(C2)N1OS(=O)(=O)[O-].[Na+] (centres unmarked)  MIC ATB combined with Example    <0.031 µg/mL
2  O=C1N2CC(n3cccn3)=CC(C2)N1OS(=O)(=O)[O-].[Na+] (centres unmarked)  MIC ATB combined with Example    <0.031 µg/mL
3  O=C1N2CC(n3ccnn3)=CC(C2)N1OS(=O)(=O)[O-].[Na+] (centres unmarked)  MIC ATB combined with Example    <0.031 µg/mL
4  O=C1N2CC(n3cccn3)=CC(C2)N1OC(F)(F)C(=O)[O-].[Li+] (centres unmarked)  MIC ATB combined with Example         4 µg/mL

====

System: SPN 49619
test summary: MIC, broth microdilution (CLSI), substance alone or ATB combined with compound at 4 or 8 μg/mL
Assay type: cell-based, S. pneumoniae
study conditions: Streptococcus pneumoniae; substance alone; SPN 49619; read-out: MIC
Criterion: MIC strictly under 8 µg/mL. Met: TRUE. Not met: FALSE.

> print(dat)
                                   compound  assigned.category
1  NC[C@@H]1C(c2ncco2)=C[C@@H]2CN1C(=O)N2OS(=O)(=O)[O-].O=C(O)C(F)(F)F.[Na+] [Example 5]              FALSE
2  NC[C@H]1C=C(c2cnco2)[C@@H]2CN1C(=O)N2OS(=O)(=O)[O-].O=C(O)C(F)(F)F.[Na+] (relative stereo) [Example 1]              FALSE
3  O=C1N2CC(n3cccn3)=CC(C2)N1OS(=O)(=O)[O-].[Na+] (centres unmarked) [Example 11]              FALSE
4  CO/N=C(\C(=O)N[C@@H]1C(=O)N2C(C(=O)[O-])=C(C[N+]3(C)CCCC3)CS[C@H]12)c1csc(N)n1 [FEP, Cefepime]               TRUE
5  NCCCn1c2c(sc1=O)C1CN(C2)C(=O)N1OS(=O)(=O)O (centres unmarked) [Example 10]               TRUE
6  C[C@@H]1O[C@@H]1P(=O)(O)O [FOS, Fosfomycin, reference compound]              FALSE

====

System: SPN 49619
test summary: MIC, broth microdilution (CLSI), substance alone or ATB combined with compound at 4 or 8 μg/mL
Format: cell-based, S. pneumoniae
study conditions: MIC of CPO; compound @8 μg/ml; SPN 49619
parameter measured: MIC ATB combined with Example compound

> print(dat)
                                   compound                      parameter.measured  endpoint.value
1  O=C1N2CC(n3cncn3)=CC(C2)N1OS(=O)(=O)[O-].[Na+] (stereo not drawn) [Example 14]  MIC ATB combined with Example compound    <0.031 µg/mL
2  NC[C@H]1C=C(c2cnco2)[C@@H]2CN1C(=O)N2OS(=O)(=O)[O-].O=C(O)C(F)(F)F.[Na+] (relative stereo) [Example 1]  MIC ATB combined with Example compound   <=0.031 μg/mL
3  O=C1N2CC(n3cccn3)=CC(C2)N1OC(F)(F)C(=O)[O-].[Li+] (stereo not drawn) [Example 13]  MIC ATB combined with Example compound   <=0.031 μg/mL
4  O=C1N2CC(c3ncco3)=CC(C2)N1OC(F)(F)C(=O)O (stereo not drawn) [Example 7]  MIC ATB combined with Example compound   <=0.031 μg/mL
5  O=C1N2CC(n3ccnn3)=CC(C2)N1OS(=O)(=O)[O-].[Na+] (stereo not drawn) [Example 12]  MIC ATB combined with Example compound   <=0.031 μg/mL
6  O=C1N2CC(n3cccn3)=CC(C2)N1OS(=O)(=O)[O-].[Na+] (stereo not drawn) [Example 11]  MIC ATB combined with Example compound   <=0.031 μg/mL

====

Tested on: ECO 190317
test summary: MIC, broth microdilution (CLSI), substance alone or ATB combined with compound at 4 or 8 μg/mL
Format: cell-based, E. coli
study conditions: ECO 190317; with Example 14 at 8 μg/ml
Reported MIC ATB combined with Example 14 @8 μg/ml values are given for each entry in this list.
parameter measured: MIC ATB combined with Example 14 @8 μg/ml

> print(dat)
                                   molecule  study.system  endpoint.value
1  CC1(C)S[C@@H]2[C@H](NC(=O)[C@H](N)c3ccc(O)cc3)C(=O)N2[C@H]1C(=O)O [AMX, Amoxicillin, reference compound]    ECO 190317    <0.031 µg/mL
2  CO/N=C(\C(=O)N[C@@H]1C(=O)N2C(C(=O)[O-])=C(C[n+]3cccc4c3CCC4)CS[C@H]12)c1csc(N)n1    ECO 190317    <0.031 µg/mL
3  CN(C)c1cc(NC(=O)CNC(C)(C)C)c(O)c2c1C[C@H]1C[C@H]3[C@H](N(C)C)C(O)=C(C(N)=O)C(=O)[C@@]3(O)C(O)=C1C2=O    ECO 190317    <0.031 µg/mL

====

Test system: ECO UFR39
test summary: MIC, broth microdilution (CLSI), substance alone or ATB combined with compound at 4 or 8 μg/mL
Type: cell-based, E. coli
study conditions: substance alone; ECO UFR39
parameter measured: MIC

> print(dat)
                                   molecule  study.system  parameter.measured  endpoint.value
1  O=C1N2CC(n3ccnn3)=CC(C2)N1OS(=O)(=O)[O-].[Na+] (stereo not shown) [Example 12]     ECO UFR39                 MIC         1 µg/mL
2  O=C1N2CC(n3ccnn3)=C[C@H](C2)N1OS(=O)(=O)[O-].[Na+] [Example 16]     ECO UFR39                 MIC       0.5 µg/mL
3  O=C(O)C(F)(F)F.O=C1N2C[C@H](c3scnc3[C@H]2c2ncc[nH]2)N1OS(=O)(=O)[O-].[Na+] (relative stereo) [Example 6]     ECO UFR39                 MIC         2 µg/mL
4  NC[C@@H]1CC(=NOCC(N)=O)[C@@H]2CN1C(=O)N2OS(=O)(=O)[O-].O=C(O)C(F)(F)F.[Na+] [Example 4]     ECO UFR39                 MIC      0.25 µg/mL

====

System: ECL P99
test summary: Fractional Inhibitory Concentration Index, checkerboard assay
Format: cell-based, E. cloacae
study conditions: compound +PIP
parameter measured: FIC index min

> print(dat)
                                   molecule  study.system  parameter.measured  endpoint.value
1  NC[C@@H]1C(c2ncco2)=C[C@@H]2CN1C(=O)N2OS(=O)(=O)[O-].O=C(O)C(F)(F)F.[Na+] [Example 5]       ECL P99       FIC index min            0.32
2  NC[C@H]1C=C(c2cnco2)[C@@H]2CN1C(=O)N2OS(=O)(=O)[O-].O=C(O)C(F)(F)F.[Na+] (relative stereo) [Example 1]       ECL P99       FIC index min            0.50
3  O=C1N2CC(c3ncco3)=C[C@H](C2)N1OS(=O)(=O)[O-].[Na+] [Example 9]       ECL P99       FIC index min            0.20
4  O=C1N2CC(c3cccnc3)=CC(C2)N1OS(=O)(=O)[O-].[Na+] (stereo not shown) [Example 8]       ECL P99       FIC index min            0.16
5  NCCn1c2c(sc1=O)C1CN(C2)C(=O)N1OS(=O)(=O)[O-].[Na+] (stereo not shown) [Example 3]       ECL P99       FIC index min            0.13
6  NC[C@@H]1CC(=NOCC(N)=O)[C@@H]2CN1C(=O)N2OS(=O)(=O)[O-].O=C(O)C(F)(F)F.[Na+] [Example 4]       ECL P99       FIC index min            0.56
7  NCCON=C1C[C@@H](C(N)=O)N2C[C@@H]1N(OS(=O)(=O)[O-])C2=O.[Na+] [Example 2]       ECL P99       FIC index min            0.14

Values from patent US20200024278A1
